Target: Human CB1R (Cannabanoid receptor 1) (Homo sapiens (Human))
Sequence (P21554 whole entry): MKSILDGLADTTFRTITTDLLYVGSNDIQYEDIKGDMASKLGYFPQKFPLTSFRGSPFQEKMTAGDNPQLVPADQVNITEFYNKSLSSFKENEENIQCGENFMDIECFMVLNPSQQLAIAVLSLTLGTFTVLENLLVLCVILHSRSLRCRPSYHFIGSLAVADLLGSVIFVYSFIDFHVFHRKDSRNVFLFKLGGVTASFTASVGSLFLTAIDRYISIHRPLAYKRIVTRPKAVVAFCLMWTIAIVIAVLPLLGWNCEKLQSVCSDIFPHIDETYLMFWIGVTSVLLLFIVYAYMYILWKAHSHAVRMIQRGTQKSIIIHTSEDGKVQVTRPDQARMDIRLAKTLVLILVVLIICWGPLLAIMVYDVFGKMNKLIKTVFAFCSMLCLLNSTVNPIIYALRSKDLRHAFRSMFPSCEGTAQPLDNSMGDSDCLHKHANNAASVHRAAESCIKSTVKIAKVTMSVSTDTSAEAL
Test: CB-1 in vitro cAMP (HTRF) assay in HEK-293 cells
Conditions: HEK-293 cells stably transfected with human CB1R, 250 nM Forskolin, mean where tested more than once, read-out: CB-1 (HEK_cAMP) EC50
pEC50: −log10 of the molar value.
measured_attribute: pEC50

Sample answers from the record:
NC(=O)c1cccc(N2CCC(c3n[nH]c4ccc(C(c5ccc(Cl)cc5)c5ccc(Cl)cc5)cc34)CC2)c1 [Compound 218] : 6.58
O=C(O)c1ccc(S(=O)(=O)N2CCC(c3n[nH]c4ccc(C(c5ccc(Cl)cc5)c5ccc(Cl)cc5)cc34)C2)cc1 (stereo not drawn) [Compound 269] : 6.23
NC(=O)COc1ccc(N2CCC(c3nn(C4CC4)c4ccc(C(c5ccc(Cl)cc5)c5ccc(Cl)cc5)cc34)CC2)cc1 [Compound 175] : 5.95
O=C(O)c1cccc(N2CCC(c3c4cc(C(c5ccc(Cl)cc5)c5ccc(Cl)cc5)ccc4nn3C3CC3)CC2)c1 [Compound 183] : 7.11

[a] O=C(NCCO)c1ccc(-n2nc(C3CCN(S(=O)(=O)C(F)(F)F)CC3)c3cc(C(c4ccc(Cl)cc4)c4ccc(Cl)cc4)ccc32)cc1 [Compound 229]
[b] NC(=O)c1ccccc1S(=O)(=O)N1CCC(c2nn(CCO)c3ccc(C(c4ccc(Cl)cc4)c4ccc(Cl)cc4)cc23)CC1 [Compound 70]
Between the entries labelled a and b , which has a larger pEC50 value on record? Write down the label of the entry you select. a
(a: 7.43, b: 6.37)
